Test system: Saccharomyces cerevisiae BY4741 SeMeCo community
Test: z-score of subpopulation abundance vs DMSO median, subpopulation auxotrophic for HL; higher = larger share of this subpopulation than in DMSO controls
Details: 10 µM; 24 h; SM minimal medium; subpopulation (auxotrophy): HL
Structures can show the parent of a compound that is named as a salt.
metric: z-score of subpopulation abundance
One number for each entry.

Please report z-score of subpopulation abundance for every entry that follows.
1. O=C(O)CCC(=O)OC[C@@H](NC(=O)C(Cl)Cl)[C@H](O)c1ccc([N+](=O)[O-])cc1 [Chloramphenicol sodium succinate]
2. CCC1=C(C)CN(C(=O)NCCc2ccc(S(=O)(=O)NC(=O)N[C@H]3CC[C@H](C)CC3)cc2)C1=O [Glimepiride]
3. CN1C(C(=O)Nc2ccccn2)=C(O)c2sc(Cl)cc2S1(=O)=O [Lornoxicam]

Result ::
1.46
0.01
-0.56

Please report z-score of subpopulation abundance for every entry that follows.
1. COc1cc([C@@H]2c3cc4c(cc3[C@@H](O[C@@H]3O[C@@H]5CO[C@@H](c6cccs6)O[C@H]5[C@H](O)[C@H]3O)[C@H]3COC(=O)[C@H]23)OCO4)cc(OC)c1O [Teniposide]
2. CNCCCC1c2ccccc2C=Cc2ccccc21 [Protriptyline hydrochloride]

Result ::
1. 1.18
2. 0.25

Please report z-score of subpopulation abundance for every entry that follows.
1. C[C@@H]1CN(c2c(F)c(N)c3c(=O)c(C(=O)O)cn(C4CC4)c3c2F)C[C@H](C)N1 [Sparfloxacin]
2. CC(=O)Oc1ccccc1C(=O)O [Aspirin]

Result ::
1: -0.29; 2: 0.18

----------
Test system: Saccharomyces cerevisiae BY4741 SeMeCo community
Assay: z-score of subpopulation abundance vs DMSO median, subpopulation auxotrophic for LUM; higher = larger share of this subpopulation than in DMSO controls
Conditions: 10 µM; 24 h; SM minimal medium; subpopulation (auxotrophy): LUM
Counter-ions that a name gives are not always drawn.
Record form. Attribute: z-score of subpopulation abundance. Fill in for each entry.
Give bare numbers.

These solved cases illustrate the format of a correct answer.
molecule	z-score of subpopulation abundance
C[C@](N)(Cc1ccc(O)c(O)c1)C(=O)O	-1.19
CO[C@@]1(NC(=O)C(C(=O)O)c2ccc(O)cc2)C(=O)N2C(C(=O)O)=C(CSc3nnnn3C)CO[C@@H]21 (stereo partly specified) [Latamoxef sodium]	-0.71
COCCCC/C(=N\OCCN)c1ccc(C(F)(F)F)cc1 [Fluvoxamine maleate]	0.15
CN(C)CCC[C@@]1(c2ccc(F)cc2)OCc2cc(C#N)ccc21 [Escitalopram Oxalate]	-0.28
CC1(C)S[C@@H]2[C@H](NC(=O)[C@H](C(=O)O)c3ccsc3)C(=O)N2[C@H]1C(=O)O [Ticarcillin sodium]	1.35

Please report z-score of subpopulation abundance for every entry that follows.
1. Cc1onc(-c2ccccc2Cl)c1C(=O)N[C@@H]1C(=O)N2[C@@H]1SC(C)(C)[C@@H]2C(=O)O [Cloxacillin Sodium]
2. Cc1cc2c(s1)Nc1ccccc1N=C2N1CCN(C)CC1
3. c1ccc2[nH]c(-c3cscn3)nc2c1
4. CCC[C@@H]1C[C@@H](C(=O)N[C@@H]([C@H]2O[C@H](SC)[C@H](O)[C@@H](O)[C@H]2O)[C@H](C)Cl)N(C)C1 [Clindamycin HCl]

Result ::
1: 1.65; 2: -0.6; 3: 0.16; 4: 0.28

Please report z-score of subpopulation abundance for every entry that follows.
1. CCOc1cc(N)c(Cl)cc1C(=O)NCC1CN(Cc2ccc(F)cc2)CCO1 (stereo unspecified) [Mosapride]
2. C=C1CCN([C@H](C)[C@](O)(Cn2cncn2)c2ccc(F)cc2F)CC1
3. Cc1ccc(Cl)c(Nc2ccccc2C(=O)O)c1Cl [Meclofenamate Sodium]
4. CC[C@H]1OC(=O)[C@H](C)[C@@H](O[C@H]2C[C@@](C)(OC)[C@@H](O)[C@H](C)O2)[C@H](C)[C@@H](O[C@@H]2O[C@H](C)C[C@H](N(C)C)[C@H]2O)[C@](C)(O)C[C@@H](C)C(=O)[C@H](C)[C@H]2OC(=O)O[C@@]21C [Erythromycin Cyclocarbonate]
5. CCN(CC)C(=O)C1(c2ccccc2)CC1CN (stereo unspecified) [Milnacipran HCl]
6. CCC(=O)NS(=O)(=O)c1ccc(-c2c(-c3ccccc3)noc2C)cc1 [Parecoxib]
7. Cc1cc(NS(=O)(=O)c2ccc(N)cc2)nc(C)n1

Result ::
-0.04
7.49
-0.74
0.8
0.17
0.13
0.42

----------
Test system: Saccharomyces cerevisiae BY4741 SeMeCo community
Assay: z-score of subpopulation abundance vs DMSO median, subpopulation auxotrophic for H; higher = larger share of this subpopulation than in DMSO controls
Settings: 10 µM; 24 h; SM minimal medium; subpopulation (auxotrophy): H
Where a name gives a salt, the structure may show the parent alone.
Record form. Attribute: z-score of subpopulation abundance. Fill in for each entry.

Please report z-score of subpopulation abundance for every entry that follows.
1. C=C[C@]1(C)C[C@@H](OC(=O)CSC(C)(C)CNC(=O)[C@H](N)C(C)C)[C@]2(C)[C@H](C)CC[C@]3(CCC(=O)[C@H]32)[C@@H](C)[C@@H]1O [Valnemulin HCl]
2. CCCCOc1ccc(C(=O)CCN2CCCCC2)cc1 [Dyclonine HCl]

Result ::
0.85
-0.1

Please report z-score of subpopulation abundance for every entry that follows.
1. OC1(c2ccc(Cl)c(C(F)(F)F)c2)CCN(CCCC(c2ccc(F)cc2)c2ccc(F)cc2)CC1 [Penfluridol]
2. CCCCc1oc2ccccc2c1C(=O)c1cc(I)c(OCCN(CC)CC)c(I)c1 [Amiodarone HCl]
3. CCN[C@@H]1C[C@H](N)[C@@H](O[C@H]2OC(CN)=CC[C@H]2N)[C@H](O)[C@H]1O[C@H]1OC[C@](C)(O)[C@H](NC)[C@H]1O [Netilmicin Sulfate]
4. O=C(Cn1ccnc1[N+](=O)[O-])NCc1ccccc1 [Benznidazole]
5. O=C1[C@H]2CCCC[C@H]2C(=O)N1CCCCN1CCN(c2nsc3ccccc23)CC1 [Perospirone hydrochloride]
6. O=C(O)c1ccccc1C(=O)Nc1ccc(S(=O)(=O)Nc2nccs2)cc1 [Phthalylsulfathiazole]
7. CN(C)[C@@H](CCOc1cccc2ccccc12)c1ccccc1 [Dapoxetine HCl]

Result ::
1: 0.09; 2: 1.97; 3: -0.25; 4: -0.18; 5: -0.14; 6: -0.26; 7: -0.41

Please report z-score of subpopulation abundance for every entry that follows.
1. CC(=O)OC(C)C[N+](C)(C)C (configuration not stated) [Methacholine chloride]
2. Clc1ccc(COC(Cn2ccnc2)c2ccc(Cl)cc2Cl)c(Cl)c1 (configuration not stated) [Miconazole Nitrate]
3. Nc1nc(N)c2nc(-c3ccccc3)c(N)nc2n1 [Triamterene]
4. COc1cc(N)c(Cl)cc1C(=O)NC1CCN(CCCOc2ccc(F)cc2)CC1OC (configuration not stated) [Cisapride]
5. O=C(c1ccc(F)cc1)C1CCN(CCn2c(=O)[nH]c3ccccc3c2=O)CC1 [Ketanserin]
6. Cc1ccc(-c2ncc(Cl)cc2-c2ccc(S(C)(=O)=O)cc2)cn1 [Etoricoxib]
7. CC[C@H]1OC(=O)[C@H](C)[C@@H](O[C@H]2C[C@@](C)(OC)[C@@H](O)[C@H](C)O2)[C@H](C)[C@@H](O[C@@H]2O[C@H](C)C[C@H](N(C)C)[C@H]2O)[C@](C)(O)C[C@@H](C)C(=O)[C@H](C)[C@H]2OC(=O)O[C@@]21C [Erythromycin Cyclocarbonate]

Result ::
0.16
29.9
2.44
-0.08
-0.82
-0.35
2.08

Please report z-score of subpopulation abundance for every entry that follows.
1. CO[C@@H]1[C@@H](O[C@@H]2O[C@H](C)[C@@H](O[C@H]3C[C@@](C)(O)[C@@H](O)[C@H](C)O3)[C@H](N(C)C)[C@H]2O)[C@@H](CC=O)C[C@@H](C)[C@@H](O[C@H]2CC[C@H](N(C)C)[C@@H](C)O2)/C=C/C=C/C[C@@H](C)OC(=O)C[C@H]1OC(C)=O [Acetylspiramycin (ASPM)]
2. CN1CCN(c2cc3c(cc2F)c(=O)c(C(=O)O)cn3-c2ccc(F)cc2)CC1 [Difloxacin hydrochloride]
3. CC(C)(C)C(=O)C(Oc1ccc(Cl)cc1)n1ccnc1 (configuration not stated) [Climbazole]
4. C[C@H](NCc1ccc(OCc2cccc(F)c2)cc1)C(N)=O [Safinamide]

Result ::
1. 1
2. -2.54
3. 2.84
4. -0.07

----------
Test system: Saccharomyces cerevisiae BY4741 SeMeCo community
Experiment: z-score of subpopulation abundance vs DMSO median, subpopulation auxotrophic for HLU; higher = larger share of this subpopulation than in DMSO controls
Details: 10 µM; 24 h; SM minimal medium; subpopulation (auxotrophy): HLU
Structures can show the parent of a compound that is named as a salt.
z-score of subpopulation abundance vs -0.5: at or above is yes (1), below is no (0).

Completed entries (count: 5):
molecule	class label
CC[C@H]1OC(=O)[C@H](C)[C@@H](O[C@H]2C[C@@](C)(OC)[C@@H](O)[C@H](C)O2)[C@H](C)[C@@H](O[C@@H]2O[C@H](C)C[C@H](N(C)C)[C@H]2O)[C@](C)(O)C[C@@H](C)C(=O)[C@H](C)[C@@H](O)[C@]1(C)O [Erythromycin thiocyanate]	no (0)
CCCN[C@H]1CCc2nc(N)sc2C1 [Pramipexole 2HCl Monohydrate]	yes (1)
C[C@]1(Cn2ccnn2)[C@H](C(=O)O)N2C(=O)C[C@H]2S1(=O)=O	yes (1)
c1ccc(C2CN3CCSC3=N2)cc1 (stereo unspecified) [Tetramisole HCl]	yes (1)
CCCN[C@H]1CCc2nc(N)sc2C1 [Pramipexole dihydrochloride]	yes (1)

Query :: In plain terms: is recorded z-score of subpopulation abundance at least -0.5 for O=C(O)c1cc(O)c2c(c1)[C@H]([C@H]1c3cc(C(=O)O)cc(O)c3C(=O)c3c(O[C@@H]4O[C@H](CO)[C@@H](O)[C@H](O)[C@H]4O)cccc31)c1cccc(O[C@@H]3O[C@H](CO)[C@@H](O)[C@H](O)[C@H]3O)c1C2=O [Sennoside A] ?
Result :: no (0)
